Examples of compounds with documented growth follow.
Test system: SR leukemia
Assay: NCI-60 one-dose screen, 48 h (100 = growth as untreated, 0 = no growth, -100 = all killed)
Settings: 10 µM unless noted
Compounds without any hit were thinned out: in the full panel of roughly 83,000, 20% have a hit.
Record the value in %, omitting the unit from your answer.

Example compounds with recorded growth:
>>> df
                                   compound  assayed_system  meas_value
0  CCCCCCCCCCCCCC(=O)C(C)N (stereo unspecified)     SR leukemia       -2.57
1  COc1cc(NCCCCN=C(N)NC(N)=NC(C)C)c2ncccc2c1     SR leukemia        98.2
2  COc1cccc(/C=C2/C(=O)N(Cc3ccco3)SC2=S)c1OC     SR leukemia      -0.493
3               OCCNCCNc1c2ccccc2nc2ccccc12     SR leukemia        43.9
4  O=S(=O)(NCCCNc1cc(-c2cn(-c3ccccc3)nc2-c2cccc(O)c2)ccn1)c1ccccc1     SR leukemia        35.5

Attention now shifts to the item below.
Request: Find the measured growth of `NCc1cn2cc(Cl)sc2n1` and report it.
Response: 102

----------
Tested on: SF-539 CNS
Test: NCI-60 one-dose screen, 48 h (100 = growth as untreated, 0 = no growth, -100 = all killed)
Settings: 10 µM unless noted
About 83,000 compounds went through this panel and 20% of them were active in at least one assay; those are over-represented in the sample as a whole.
List of growth values.
Reply with just the number (in %).

Some entries whose results are on file:
>>> df
                                   compound  meas_value
0  CC1CN(C(C)C)C(=S)N(c2ccccc2)C1=O (stereo unspecified)        96.4
1  O=C1/C(=C/c2ccc(Cl)cc2Cl)CN(S(=O)(=O)c2ccccc2)C/C1=C\c1ccc(Cl)cc1Cl       -54.1

Request: Given `CCCCCCNC(=O)Oc1ccc(/C(=C(\C)c2ccccc2)c2ccc(OCCN(CC)CC)cc2)cc1` , respond with its growth.
Response: 50

Request: Quickly give me recorded growth for `Nc1cccc(NC(=O)C(=O)Nc2cccc(N)c2)c1`
Response: 111

Request: Give growth for the following compound: `CNc1cc2nc3cc(NC)c(C)cc3cc2cc1C`
Response: 10.4

Request: Fill in reported growth for this entry: `COc1ccc(CCN2CC=Cn3c2nc2ccccc2c3=O)cc1`
Response: -34.1

----------
Test system: NCI-H460 lung
Assay: NCI-60 one-dose screen, 48 h
Conditions: 10 µM unless noted
About 83,000 compounds went through this panel and 20% of them were active in at least one assay; those are over-represented in the sample as a whole. Active and inactive are the calls of the source. The calls were made as follows: active = growth percent below 10; inactive = the rest.
Respond using exactly one of the listed classes: active, inactive

                                   compound  assayed_system  qualitative_label
0  CC(=O)C1=C(O)C=C2Oc3c(C(=O)/C=C/c4ccccc4)c(O)c(C)c(O)c3[C@]2(C)C1=O   NCI-H460 lung           inactive
1        NC(=S)N/N=C/c1cc(-c2cccc(N)c2)ccn1   NCI-H460 lung             active
2  C=C1CCC2C3(C)COC(c4ccc(OC)cc4Br)OC3CCC2(C)C1/C=C/C1=CCOC1=O (centres undefined)   NCI-H460 lung           inactive
3  COC(=O)[C@@H]1CC[C@]2(C)[C@H](CC[C@@H]3O[C@@]32C)[C@@]1(C)CC(=O)c1ccoc1   NCI-H460 lung           inactive
4  COc1ccccc1N1CCN(CCn2c(=O)c3c(c4ccccc4n3C)n(C)c2=O)CC1   NCI-H460 lung           inactive

Request: What classification did `O=C(NCc1cccc(C(F)(F)F)c1)[C@H](CCC(=O)N1CCN(C2CCCCC2)CC1)N1C(=O)[C@@H](N2C(=O)OC[C@@H]2c2ccccc2)[C@H]1/C(Cl)=C/c1ccccc1` end up with in this test?
Response: inactive

Request: Please share the test call associated with `O=C(O)c1c([N+](=O)[O-])cnc2ccccc12` .
Response: inactive

Request: Record lookup: outcome of this test for `COc1ccc(-c2cc(-c3ccc(N(C)C)cc3)nc(NC(=O)c3ccncc3)n2)cc1` ?
Response: inactive

Request: Query: recorded result category for `Oc1c(Cl)cc(Cl)cc1CNc1nccnn1` in this test
Response: inactive

Request: Dear colleague, could you share the recorded outcome for `CC(=O)C1=C(O)C=C2Oc3c(C(=O)/C=C/c4c(Cl)cccc4Cl)c(O)c(C)c(O)c3[C@]2(C)C1=O` when you have a moment?
Response: active

Request: What is the recorded call for this compound in the test? `COc1ccc(-n2cc(-c3ccccc3)c3c(SCC(=O)N/N=C/c4ccc([N+](=O)[O-])cc4)ncnc32)cc1`
Response: inactive

Request: What did the test return for `CCCCCC(=O)N(CCCC)CCCC` ?
Response: inactive

Request: Called result for `Nc1nc2ccc(-c3nc4ccc5[nH]ncc5c4c4c3CCC4)cc2s1`
Response: active

Request: Could you please tell me the result logged for `COc1ccc(-c2nc(Nc3cc(C)[nH]n3)c3ccccc3n2)cc1` in this assay?
Response: inactive

Request: What classification did `COc1cnc2c(c1)C(=O)c1c-2n(CCCN2CCN(C)CC2)c(=O)c2cc([N+](=O)[O-])ccc12` end up with in this test?
Response: active

Request: # fetch the recorded call for `CCN(CC)c1ccc(CNc2cc(C)nc3ccc(OC)cc23)cc1` here
Response: active

Request: Please let me know the test result on file for `COc1ccc(C(=O)c2sc3nc4c(c(C(F)(F)F)c3c2N)CN(C(C)=O)CC4)cc1OC` .
Response: inactive

Request: Lab log entry: Cc1nn(-c2nc3ccccc3[nH]2)c2c1C(c1ccc3c(c1)OCO3)CC(=O)N2 (centres undefined) — outcome as called in the assay?
Response: active

Request: GET /call?item= `C/C(=C(/c1ccc(O)cc1)c1ccc(OCCN(C)C)cc1)c1ccccc1` returns the recorded outcome of this test.
Response: inactive
